Target: T1, hAPLNR (Homo sapiens, UniProt P35414)
T1 sequence (P35414 1-380): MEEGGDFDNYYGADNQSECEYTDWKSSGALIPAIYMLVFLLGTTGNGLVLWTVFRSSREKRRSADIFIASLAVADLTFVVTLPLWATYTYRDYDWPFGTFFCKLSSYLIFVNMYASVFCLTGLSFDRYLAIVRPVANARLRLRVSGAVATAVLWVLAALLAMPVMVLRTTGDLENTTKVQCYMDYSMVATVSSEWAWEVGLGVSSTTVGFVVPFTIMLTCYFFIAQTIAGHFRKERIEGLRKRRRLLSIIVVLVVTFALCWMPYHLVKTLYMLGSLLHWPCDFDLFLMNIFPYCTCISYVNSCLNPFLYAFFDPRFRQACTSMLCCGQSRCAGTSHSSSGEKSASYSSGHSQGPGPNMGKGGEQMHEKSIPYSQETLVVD
Test: CRE-luciferase cyclic AMP assay, inhibition of hAPLNR in the presence of 100 ρM Apelin in HEK293/CRE-luc/hAPLNR cells
Assay type: cell-based
Set-up: expressed in transfected cells
Conditions: Table 6D
measured_attribute: % Inhibition at 100 nM antibody, in the presence of 100 ρM Apelin (at 5 μM Forskolin)

Examples with their reported % Inhibition at 100 nM antibody, in the presence of 100 ρM Apelin (at 5 μM Forskolin) follow.
molecule	recorded_value
H4H9113P: anti-APLNR antibody, HCVR/LCVR SEQ ID NO: 210/218, human IgG4 Fc (antibody, V domains shown, human IgG4 Fc) VH: QVQLVQSGAEVKKPGASVEVSCKASGYTFTDYYIHWIRQAPGQGLEWMGWINPDSGRTNYAQKFQVRVTMTRDTSITTAYMELNRLKSDDTAVYYCARGPLRGYSGYDFFDYWGQGTLVTVSS VL: DIQMTQSPSSLSASVGDRVTITCRASQGIRNDLGWYQQKPGKAPNRLIYAASSLQSGVPSRFSGSGSGTEFTLTISSLHPEDFATYSCLQHNSFPLTFGGGTKVEIK	No Inhibition
H4H9104P: anti-APLNR antibody, HCVR/LCVR SEQ ID NO: 178/186, human IgG4 Fc (antibody, V domains shown, human IgG4 Fc) VH: QVQLVESGGDLVKPGGSLRLSCAASGFTFSDYYMNWIRQAPGKGLEWVSYISSSGSTIHYADSVKGRFTISRDNAKNLVYLRMNSLRAEDTAVYFCAREREVHDYSDPYFFFYGMDVWGQGTTVTVSS VL: DIQMTQSPSSVSASVGDRVTITCRASQDVSSWLAWYQHKPGKAPKLLIFAASSLQSGVPSRFSGSGSGTDFTLTISSLQSEDFATYYCQQANSFPLTFGGGTKVEIK	No Inhibition
H4H9101P: anti-APLNR antibody, HCVR/LCVR SEQ ID NO: 146/154, human IgG4 Fc (antibody, V domains shown, human IgG4 Fc) VH: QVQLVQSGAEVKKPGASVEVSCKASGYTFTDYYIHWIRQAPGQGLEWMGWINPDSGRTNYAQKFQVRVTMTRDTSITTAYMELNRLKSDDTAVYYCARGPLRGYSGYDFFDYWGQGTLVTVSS VL: DIQLTQSPSFLSASVGDRVTITCWASQGISSYLAWYQQKPGKAPKLLIYAASTLQSGVPSRFSGSGSGTEFTLTISSLQPEDFASYFCQQLNSNPRTFGQGTKVEIK	No Inhibition
H4H9112P: anti-APLNR antibody, HCVR/LCVR SEQ ID NO: 194/202, human IgG4 Fc (antibody, V domains shown, human IgG4 Fc) VH: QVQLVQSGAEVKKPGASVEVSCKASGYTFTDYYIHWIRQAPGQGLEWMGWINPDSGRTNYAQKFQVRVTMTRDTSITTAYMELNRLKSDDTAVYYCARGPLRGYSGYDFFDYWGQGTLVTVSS VL: DIQMTQSPSSLSAFVGDRVTITCRASQSISSYLNWYQQKPGKAPKLLIYTASTLQRGVPSRFRGSGSGTDFTLTISSLQPEDFATYYCHQTYSIPITFGQGTRLEIK	No Inhibition

Q: Quick one: % Inhibition at 100 nM antibody, in the presence of 100 ρM Apelin (at 5 μM Forskolin) of H4H9103P: anti-APLNR antibody, HCVR/LCVR SEQ ID NO: 162/170, human IgG4 Fc (antibody, V domains shown, human IgG4 Fc) VH: EVQLVESGGGLVQPGRSLRLSCAASGFTFDDYAMHWVRQVPGKGLEWVSGITWNSGDIGYADSVKGRFTISRDNAKNSLYLQMNSLRAEDTALYYCTKDKDSSGYYGIDVWGQGTTVTVSS VL: DIQMTQSPSSVSASVGDRVTITCRASQGIRTWLAWYQQKPGKAPKLLIYAASSLQSGVPSRFSGSESGTDFTLTISSLQPEDFATYYCQQANSFPFTFGPGTKVDIK ?
A: No Inhibition
